Assay: Clearance in Sprague-Dawley rat at 0.5 mg/kg, iv
Assay type: ADME, organism-based
Conditions: in vivo
Simple rule here: clearance less than 20 mL/min/kg is rule met, otherwise rule not met.

In [3]: df
Out[3]:
                                   molecule  qualitative_label
0  Cn1nc2c(c1[C@H]1Cc3cc(Cl)cc(-c4ccnc5cc(CN6C(=O)CCC6=O)sc45)c3O1)CNCC2       rule not met
1  Cc1cc(Cl)cc(-c2ccnc3cc(CN4C(=O)CCC4=O)sc23)c1O[C@@H]1CNC[C@@H]1F       rule not met
2  Cc1cc(Cl)cc(-c2ccnc3cc(CN4C(=O)C5C(C4=O)C5(C)C)sc23)c1O[C@@H]1CCNC[C@@H]1C (some centres undefined)           rule met
3  O=C([C@H]1Cc2cc(Cl)cc(-c3ccnc4cc(CN5C(=O)CCC5=O)sc34)c2O1)N1CCNCC1       rule not met
4  Cc1cc(Cl)cc(-c2ccnc3cc(CN4C(=O)CCC4=O)sc23)c1O[C@H]1CCCNC1       rule not met
5  Cc1cc(Cl)cc(-c2ccnc3cc(Cn4c(=O)ccn(CC(F)(F)F)c4=O)sc23)c1O[C@@H]1CCNC[C@@H]1C           rule met
6  Cc1cc(Cl)cc(-c2ccnc3cc(CN4C(=O)CCC4=O)sc23)c1O[C@@H]1CCNC[C@@H]1C           rule met
7  Cc1cc(Cl)cc(-c2ccnc3cc(CN4C(=O)CCC4=O)sc23)c1OC1CCNCC1           rule met
8  O=C1CCC(=O)N1Cc1cc2nccc(-c3cc(Cl)cc4c3O[C@@H](c3onc5c3CNCC5)C4)c2s1       rule not met

====

Target: Ubiquitin carboxyl-terminal hydrolase 4 (Homo sapiens)
Sequence (Q13107 whole entry): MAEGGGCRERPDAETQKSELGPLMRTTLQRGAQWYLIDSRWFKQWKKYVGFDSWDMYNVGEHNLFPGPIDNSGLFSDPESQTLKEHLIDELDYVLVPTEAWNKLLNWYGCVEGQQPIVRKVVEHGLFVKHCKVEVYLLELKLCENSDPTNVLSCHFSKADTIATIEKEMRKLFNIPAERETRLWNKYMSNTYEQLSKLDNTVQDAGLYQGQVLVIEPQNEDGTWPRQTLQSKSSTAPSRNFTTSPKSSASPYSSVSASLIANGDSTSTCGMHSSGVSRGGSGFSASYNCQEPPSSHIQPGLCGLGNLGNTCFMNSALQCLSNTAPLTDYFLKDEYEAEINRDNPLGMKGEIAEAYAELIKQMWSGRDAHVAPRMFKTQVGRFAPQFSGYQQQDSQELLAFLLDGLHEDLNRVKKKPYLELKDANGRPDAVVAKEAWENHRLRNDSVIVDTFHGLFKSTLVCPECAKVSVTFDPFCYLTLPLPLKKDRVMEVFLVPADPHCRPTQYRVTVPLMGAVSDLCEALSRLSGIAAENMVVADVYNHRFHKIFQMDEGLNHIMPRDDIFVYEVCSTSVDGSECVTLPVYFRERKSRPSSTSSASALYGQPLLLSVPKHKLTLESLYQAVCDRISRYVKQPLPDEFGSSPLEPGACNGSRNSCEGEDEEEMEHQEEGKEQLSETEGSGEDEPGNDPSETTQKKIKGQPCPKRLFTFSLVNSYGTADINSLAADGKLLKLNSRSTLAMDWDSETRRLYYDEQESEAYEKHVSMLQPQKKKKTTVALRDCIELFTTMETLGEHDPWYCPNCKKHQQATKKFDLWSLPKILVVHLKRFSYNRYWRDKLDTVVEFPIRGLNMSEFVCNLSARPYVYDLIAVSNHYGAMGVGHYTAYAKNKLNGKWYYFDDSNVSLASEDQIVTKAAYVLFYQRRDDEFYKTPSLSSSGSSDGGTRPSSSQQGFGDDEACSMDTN
pIC50: −log10 of the molar value.
readout label: pIC50

>>> df
                                   molecule  measurement
0  Cc1cc(Cl)cc(-c2ccnc3cc(CN4C(=O)C5C(C4=O)C5(C)C)sc23)c1O[C@@H]1CCNC[C@@H]1C (stereo partly specified)       < 5.00

====

Target: Ubiquitin carboxyl-terminal hydrolase 7 (Homo sapiens, UniProt Q93009)
Sequence (Q93009 whole entry): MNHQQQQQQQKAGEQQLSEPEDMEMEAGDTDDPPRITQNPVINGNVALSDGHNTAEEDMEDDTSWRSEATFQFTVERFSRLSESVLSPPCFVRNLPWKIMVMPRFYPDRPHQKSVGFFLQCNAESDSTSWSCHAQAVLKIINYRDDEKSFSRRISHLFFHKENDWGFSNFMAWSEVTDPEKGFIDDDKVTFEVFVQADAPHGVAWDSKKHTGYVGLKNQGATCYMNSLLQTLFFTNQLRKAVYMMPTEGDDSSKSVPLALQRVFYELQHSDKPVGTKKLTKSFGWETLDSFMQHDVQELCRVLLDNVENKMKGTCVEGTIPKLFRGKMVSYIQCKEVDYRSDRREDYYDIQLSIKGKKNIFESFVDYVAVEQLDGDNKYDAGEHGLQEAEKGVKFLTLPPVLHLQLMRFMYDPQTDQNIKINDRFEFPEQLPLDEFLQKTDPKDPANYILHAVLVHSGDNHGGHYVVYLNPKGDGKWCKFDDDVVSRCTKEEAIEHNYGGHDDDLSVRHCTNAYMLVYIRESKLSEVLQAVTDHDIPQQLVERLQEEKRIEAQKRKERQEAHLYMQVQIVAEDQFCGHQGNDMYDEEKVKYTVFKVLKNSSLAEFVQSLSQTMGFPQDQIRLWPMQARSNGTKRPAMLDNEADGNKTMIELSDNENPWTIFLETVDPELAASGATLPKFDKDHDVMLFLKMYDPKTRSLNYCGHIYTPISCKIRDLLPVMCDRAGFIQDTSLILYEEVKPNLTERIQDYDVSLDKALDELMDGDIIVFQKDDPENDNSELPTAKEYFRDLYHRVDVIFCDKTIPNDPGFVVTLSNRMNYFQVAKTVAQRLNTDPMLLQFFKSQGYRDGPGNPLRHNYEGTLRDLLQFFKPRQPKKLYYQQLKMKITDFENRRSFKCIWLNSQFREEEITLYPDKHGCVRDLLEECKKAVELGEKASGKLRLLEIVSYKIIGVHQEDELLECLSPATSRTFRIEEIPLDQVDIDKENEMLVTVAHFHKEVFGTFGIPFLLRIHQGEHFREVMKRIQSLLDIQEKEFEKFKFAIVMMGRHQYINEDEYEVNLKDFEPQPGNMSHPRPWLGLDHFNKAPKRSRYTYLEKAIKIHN
Assay: Inhibition of USP7 in human RKO cells transfected with p53 luciferase reporter vector assessed as increase in p53-dependent luciferase activity measured after 18 hrs by BrightGlo luciferase assay
Simple rule here: EC50 less than 0.2 µM is TRUE, otherwise FALSE.

In [3]: df
Out[3]:
                                    molecule  qualitative_label
 0  Cc1cc(Cl)cc(-c2ccnc3cc(CN4C(=O)CCC4=O)sc23)c1O[C@H]1C[C@H](N)C1               TRUE
 1  Cc1cc(Cl)cc(-c2ccnc3cc(CN4C(=O)CCC4=O)sc23)c1O[C@@H]1CCNC[C@@H]1C               TRUE
 2  Cc1cc(Cl)cc(-c2ccnc3cc(CN4C(=O)CCC4=O)sc23)c1CN1CCNC[C@@H]1C              FALSE
 3  Cc1cc(Cl)cc(-c2ccnc3cc(CN4C(=O)C5CC5C4=O)sc23)c1O[C@@H]1CCNC[C@@H]1C (some centres undefined)               TRUE
 4  Cc1cc(Cl)cc(-c2ccnc3cc(CN4C(=O)C5C(C4=O)C5(C)C)sc23)c1CC1CCCNC1 (centres undefined)               TRUE
 5  Cc1cc(Cl)cc(-c2ccnc3cc(CN4C(=O)CCC4=O)sc23)c1CN1CCNCC1              FALSE
 6  Cc1cc(Cl)cc(-c2ccnc3cc(CN4C(=O)CCC4=O)sc23)c1O[C@@H]1CNC[C@@H]1F              FALSE
 7  Cc1cc(Cl)cc(-c2ccnc3cc(CN4C(=O)C5CC5C4=O)sc23)c1C[C@@H]1CNCCO1 (some centres undefined)               TRUE
 8  Cc1cc(Cl)cc(-c2ccnc3cc(CN4C(=O)C5C(C4=O)C5(C)C)sc23)c1NC1CCCNC1 (centres undefined)               TRUE
 9  Cc1cc(Cl)cc(-c2ccnc3cc(CN4C(=O)C5CC5C4=O)sc23)c1C[C@@H]1CNC[C@@H](C)O1 (mixture of isomers)               TRUE
10  Cc1cc(Cl)cc(-c2ccnc3cc(CN4C(=O)CCC4=O)sc23)c1CN1[C@@H](C)CNC[C@@H]1C               TRUE
11  Cc1cc(Cl)cc(-c2ccnc3cc(CN4C(=O)CCC4=O)sc23)c1OC1CCNCC1              FALSE
12  Cc1cc(Cl)cc(-c2ccnc3cc(CN4C(=O)C5C(C4=O)C5(C)C)sc23)c1O[C@@H]1CCNC[C@@H]1C (some centres undefined)               TRUE
13  Cc1cc(Cl)cc(-c2ccnc3cc(CN4C(=O)C5C(C4=O)C5(C)C)sc23)c1OC1CCCNC1 (centres undefined)              FALSE
14  Cc1cc(Cl)cc(-c2ccnc3cc(CN4C(=O)C5C(C4=O)C5(C)C)sc23)c1C[C@@H]1CNCCO1 (some centres undefined)               TRUE
15  Cc1cc(Cl)cc(-c2ccnc3cc(CN4C(=O)CCC4=O)sc23)c1OCC1(F)CNC1              FALSE
16  Cc1cc(Cl)cc(-c2ccnc3cc(Cn4c(=O)ccn(CC(F)(F)F)c4=O)sc23)c1O[C@@H]1CCNC[C@@H]1C               TRUE
17  Cc1cc(Cl)cc(-c2ccnc3cc(CN4C(=O)C5CC5C4=O)sc23)c1C[C@H]1OCCN[C@@H]1C (mixture of isomers)              FALSE
18  Cc1cc(Cl)cc(-c2ccnc3cc(CN4C(=O)CCC4=O)sc23)c1O[C@H]1CCCNC1               TRUE
